Below, each of the molecules is paired with its reported Binding to PGE2-Biotinamide (OD450) value.
experiment: Biotin-PGE2 ELISA (PGE2-biotinamide binding to captured IgG); conditions: Biotin-PGE2 0.3 μM

A selection of reference data follows.
Molecule	Binding to PGE2-Biotinamide (OD450)
L21: human anti-PGE2 antibody from PROfusion mRNA display; VH SEQ ID NO 33, VL SEQ ID NO 36 (antibody, V domains shown) VH: EVQLVQSGSELKKPGTSVKVSCKASGYTLTTYAMNWVRQAPGQGLEWMGWIGTSTGNPTYAQGFTGRFVFSLDTSVNTAHLQIYSLKAEDTALYYCARSSLTRPADYWGQGTLVTVSS VL: QSGLTQPPSVSGAPGQRVTISCFGSSSNIGAGYDVHWYQQLPGAAPKLLIFGNNNRPSGVPDRFSGSKSGTSASLAITGLQAEDEADYYCQSCDSSLSGAVFGTGTKVTVL	0.16
K3A: human anti-PGE2 antibody from PROfusion mRNA display; VH SEQ ID NO 13, VL SEQ ID NO 17 (antibody, V domains shown) VH: EVQLVQSGAETKKPGASVEVSCKASGYSFTEYGISWVRQAPGQGPEWMGCISPYNGKLHYAQEFQGRVTMTTGTSTNTAYMELGSLRSDDTAVYYCARGGFSFYDSSGYYYVTDHWGQGTLVTVSS VL: DIRLTQSPSSLSASVGDRVTITCRASQSIGSYLNWYQQKSGKAPKLLIYAASKLQSGVPSRFSGSGFGTDFTLTISSLQPEDSATYYCQQSDTTPFTFGQGTKLEIKR	0.34

Now, please, on to the next molecule.
# input Determine from records and report Binding to PGE2-Biotinamide (OD450) for K7H: human anti-PGE2 antibody from PROfusion mRNA display; VH SEQ ID NO 21, VL SEQ ID NO 24 (antibody, V domains shown) VH: EVQLVQSGSELKKPGASVKVSCKASGYSFTEYGISWVRQAPGQGPEWMGCISPYNGKLHYAQKFLGRVTMTTDTSTNTAYMELRSLKSDDTAVYYCARGGFSSYDSSGYYYVTDHWGQGTLVTVSS VL: DIRLTQSPSSLPASVGDRVTITCRASQSISTYLNWYQQTPGKAPSLLIYAASSLQSGVPSRFSGSGSGTDFTLTISSLQPEDFATYYCQQSYSPPPTFGGGTKVEIKR
# output 0.04
